- METHOD_NOTES: Plasma concentration in rat at 3 mg/kg, po at 12 hrs
- Format: ADME, organism-based
- Parameters: dose 3 mg/kg, route oral
METRIC: concentration at 12 h (nM)

• O=C(Nc1cccnc1)N1CCN(Cc2cccc(Oc3ccc(Cl)cc3)c2)CC1 = 200

====

Catalogue of molecules with associated pIC50
- TARGET_OR_TEST_SYSTEM: Fatty-acid amide hydrolase 1 (Homo sapiens, UniProt O00519)
- Sequence (O00519 whole entry): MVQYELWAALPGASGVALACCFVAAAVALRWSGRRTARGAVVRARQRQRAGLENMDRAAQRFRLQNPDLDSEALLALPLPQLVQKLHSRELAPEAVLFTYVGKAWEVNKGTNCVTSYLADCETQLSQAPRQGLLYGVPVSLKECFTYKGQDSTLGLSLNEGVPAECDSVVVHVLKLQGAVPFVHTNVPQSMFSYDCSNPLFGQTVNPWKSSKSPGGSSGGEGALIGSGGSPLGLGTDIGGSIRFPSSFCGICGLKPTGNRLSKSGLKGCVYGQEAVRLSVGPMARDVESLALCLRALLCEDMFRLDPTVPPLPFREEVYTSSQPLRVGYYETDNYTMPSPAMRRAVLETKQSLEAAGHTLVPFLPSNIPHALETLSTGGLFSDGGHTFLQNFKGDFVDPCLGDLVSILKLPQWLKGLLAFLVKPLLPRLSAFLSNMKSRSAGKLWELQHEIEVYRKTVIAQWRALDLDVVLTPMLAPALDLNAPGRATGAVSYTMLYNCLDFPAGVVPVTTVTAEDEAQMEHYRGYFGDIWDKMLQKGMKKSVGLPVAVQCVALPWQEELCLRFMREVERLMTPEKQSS
- METHOD_NOTES: Inhibition of human FAAH after 1 hr
pIC50: −log10 of the molar value.
METRIC: pIC50

- O=C(Nc1ccncc1)N1CCN(Cc2cccc(Oc3ccc(Cl)cc3)c2)CC1: 7.82
- O=C(Nc1ccccc1)N1CCN(Cc2cccc(Oc3ccccc3)c2)CC1: 7.13
- O=C(Nc1ccccc1)N1CCN(Cc2ccc(Oc3ccc(Cl)cc3)cc2)CC1: 7.21
- O=C(Nc1ccccc1)N1CCN(Cc2ccccc2Cl)CC1: 5.33
- O=C(Nc1ccccc1)N1CCN(Cc2cccc(C(F)(F)F)c2)CC1: 6.46
- COc1cccc(CN2CCN(C(=O)Nc3ccccc3)CC2)c1: 5.82
- COc1ccc(Oc2cccc(CN3CCN(C(=O)Nc4ccccc4)CC3)c2)cc1: 7.92
- N#Cc1ccc(CN2CCN(C(=O)Nc3ccccc3)CC2)cc1: 5.33
- CC(C)(C)c1ccc(Oc2cccc(CN3CCN(C(=O)Nc4ccccc4)CC3)c2)cc1: 7.34
- O=C(Nc1ccccc1)N1CCN(Cc2cccc(Cl)c2)CC1: 6.08

====

- TARGET_OR_TEST_SYSTEM: Fatty-acid amide hydrolase 1 (Rattus norvegicus)
- Sequence (P97612 whole entry): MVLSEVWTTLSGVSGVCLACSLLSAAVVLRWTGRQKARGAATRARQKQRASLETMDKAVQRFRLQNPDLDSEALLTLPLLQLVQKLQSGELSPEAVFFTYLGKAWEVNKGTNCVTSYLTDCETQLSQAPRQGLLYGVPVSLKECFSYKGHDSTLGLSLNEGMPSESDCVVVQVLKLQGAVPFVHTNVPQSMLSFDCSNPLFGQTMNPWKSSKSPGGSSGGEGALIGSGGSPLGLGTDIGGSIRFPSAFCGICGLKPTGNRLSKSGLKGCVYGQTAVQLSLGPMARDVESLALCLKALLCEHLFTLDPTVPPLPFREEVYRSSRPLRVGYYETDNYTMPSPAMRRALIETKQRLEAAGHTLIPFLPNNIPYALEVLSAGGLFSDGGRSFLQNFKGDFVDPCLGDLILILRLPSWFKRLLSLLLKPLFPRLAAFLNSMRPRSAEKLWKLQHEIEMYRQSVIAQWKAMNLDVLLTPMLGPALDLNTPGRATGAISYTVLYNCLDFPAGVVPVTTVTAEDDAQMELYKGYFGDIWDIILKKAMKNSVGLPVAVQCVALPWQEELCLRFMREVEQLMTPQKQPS
- METHOD_NOTES: Inhibition of rat FAAH
pIC50: −log10 of the molar value.
METRIC: pIC50

• COc1cc(Br)cc(CN2CCN(C(=O)Nc3ccccc3)CC2)c1O = 6.61

====

- METHOD_NOTES: Ratio of drug level in brain to plasma in rat at 0.3 to 10 mg/kg, po
- Format: ADME, organism-based
- Design: dose 0.3-10 mg/kg, route oral
- ASSAY_CONDITIONS: read-out: BPR
METRIC: Kp

- O=C(Nc1cccnc1)N1CCN(Cc2cccc(Oc3ccc(Cl)cc3)c2)CC1: 2.62

====

- TARGET_OR_TEST_SYSTEM: Fatty-acid amide hydrolase 1 (Homo sapiens, UniProt O00519)
- Sequence (O00519 whole entry): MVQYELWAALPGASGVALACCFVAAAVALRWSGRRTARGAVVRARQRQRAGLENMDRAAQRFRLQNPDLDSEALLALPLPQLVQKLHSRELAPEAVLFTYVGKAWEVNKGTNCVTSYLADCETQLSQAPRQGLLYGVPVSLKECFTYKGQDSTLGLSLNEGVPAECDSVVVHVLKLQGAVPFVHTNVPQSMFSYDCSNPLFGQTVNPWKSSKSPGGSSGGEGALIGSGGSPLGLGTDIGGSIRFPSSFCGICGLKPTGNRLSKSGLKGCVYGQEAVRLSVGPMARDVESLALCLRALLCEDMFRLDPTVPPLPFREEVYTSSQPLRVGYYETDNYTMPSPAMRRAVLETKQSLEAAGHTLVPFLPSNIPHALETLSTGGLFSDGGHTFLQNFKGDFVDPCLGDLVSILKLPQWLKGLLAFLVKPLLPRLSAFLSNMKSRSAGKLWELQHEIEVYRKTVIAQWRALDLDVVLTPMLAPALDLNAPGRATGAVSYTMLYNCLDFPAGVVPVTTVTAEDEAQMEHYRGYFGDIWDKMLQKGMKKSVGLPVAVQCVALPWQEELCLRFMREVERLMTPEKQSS
- METHOD_NOTES: Inhibition of human FAAH
pIC50: −log10 of the molar value.
METRIC: pIC50

- COc1cc(Br)cc(CN2CCN(C(=O)Nc3ccccc3)CC2)c1O: 6.92

====

- METHOD_NOTES: Clearance in rat at 0.3 to 10 mg/kg, po
- Type: ADME, organism-based
- Parameters: dose 0.3-10 mg/kg, route oral
- ASSAY_CONDITIONS: in vivo
METRIC: CL/F (mL/min/kg)

* O=C(Nc1cccnc1)N1CCN(Cc2cccc(Oc3ccc(Cl)cc3)c2)CC1 | 11.5
